- Assayed System: Lysine-specific demethylase 4A (Homo sapiens, UniProt O75164)
- Sequence (O75164 whole entry): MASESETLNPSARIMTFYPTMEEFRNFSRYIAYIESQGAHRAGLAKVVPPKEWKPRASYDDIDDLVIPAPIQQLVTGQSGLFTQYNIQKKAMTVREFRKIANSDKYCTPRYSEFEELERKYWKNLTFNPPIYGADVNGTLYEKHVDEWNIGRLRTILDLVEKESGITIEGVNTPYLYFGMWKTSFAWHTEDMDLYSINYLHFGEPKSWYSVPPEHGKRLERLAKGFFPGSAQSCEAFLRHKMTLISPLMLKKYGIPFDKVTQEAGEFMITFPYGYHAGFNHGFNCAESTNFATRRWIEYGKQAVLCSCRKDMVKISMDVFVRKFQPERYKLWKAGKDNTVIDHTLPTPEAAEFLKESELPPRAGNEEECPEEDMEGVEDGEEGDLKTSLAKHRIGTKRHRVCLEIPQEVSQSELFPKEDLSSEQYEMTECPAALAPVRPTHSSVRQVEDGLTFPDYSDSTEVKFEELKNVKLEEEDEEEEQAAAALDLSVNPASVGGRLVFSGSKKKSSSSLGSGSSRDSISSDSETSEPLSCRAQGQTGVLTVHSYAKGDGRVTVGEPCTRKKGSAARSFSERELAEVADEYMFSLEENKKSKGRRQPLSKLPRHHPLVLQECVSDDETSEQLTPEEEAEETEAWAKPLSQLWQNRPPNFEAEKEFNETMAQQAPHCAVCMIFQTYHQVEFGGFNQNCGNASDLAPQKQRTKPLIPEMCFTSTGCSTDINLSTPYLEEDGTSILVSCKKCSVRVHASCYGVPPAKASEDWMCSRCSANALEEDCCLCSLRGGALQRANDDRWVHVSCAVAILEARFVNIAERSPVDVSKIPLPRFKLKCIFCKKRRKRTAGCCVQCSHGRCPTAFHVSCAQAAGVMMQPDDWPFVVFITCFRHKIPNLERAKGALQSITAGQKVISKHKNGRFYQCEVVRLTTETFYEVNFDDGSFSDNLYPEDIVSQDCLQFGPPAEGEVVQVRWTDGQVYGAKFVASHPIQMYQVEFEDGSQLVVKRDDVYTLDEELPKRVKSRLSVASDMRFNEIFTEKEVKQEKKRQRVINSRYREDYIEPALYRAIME
- Test Description: Inhibition of human recombinant KDM4A assessed as decarboxylation of [1-14C] alphaKG at pH 7.4 using H3K9me3 as substrates incubated for 1 hr
pIC50: −log10 of the molar value.
Recorded pIC50 by entry
Attribute Measured: pIC50

INSERT INTO measurements (test_smiles, result) VALUES
  ('N#Cc1c(O)c(C(=O)CCC(=O)O)nc2ccc(Cc3ccccc3)cc12', '< 4.40'),
  ('O=C(O)CCC(=O)c1nc2cc(-c3ccccc3)ccc2cc1O', '< 4.40'),
  ('N#Cc1c(O)c(C(=O)CCC(=O)O)nc2ccccc12', 4.40),
  ('N#Cc1ccc(-c2cccc3c(C#N)c(O)c(C(=O)CCC(=O)O)nc23)cc1', 5.10),
  ('N#Cc1c(O)c(C(=O)CCC(=O)O)nc2ccc(-c3ccccc3)cc12', '< 4.40'),
  ('N#Cc1c(O)c(C(=O)CCC(=O)O)nc2cc(-c3ccccc3)ccc12', 5.41),
  ('COc1ccc(-c2ccc3c(C#N)c(O)c(C(=O)CCC(=O)O)nc3c2)cc1', '< 4.40'),
  ('N#Cc1c(O)c(C(=O)CCC(=O)O)nc2cc(Sc3ccccc3)ccc12', '< 4.40'),
  ('Cc1cccc(-c2ccc3c(C#N)c(O)c(C(=O)CCC(=O)O)nc3c2)c1', 4.66),
  ('N#Cc1c(O)c(C(=O)CCC(=O)O)nc2cc(Cc3ccccc3)ccc12', '< 4.40'),
  ('Cc1cc(C)cc(-c2ccc3c(C#N)c(O)c(C(=O)CCC(=O)O)nc3c2)c1', '< 4.40');
